B1: scFv; the commonest letter at each place (parent)
chain 1: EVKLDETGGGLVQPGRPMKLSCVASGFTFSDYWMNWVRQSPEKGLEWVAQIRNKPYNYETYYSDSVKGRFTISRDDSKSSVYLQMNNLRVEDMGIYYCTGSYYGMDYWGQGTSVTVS
chain 2: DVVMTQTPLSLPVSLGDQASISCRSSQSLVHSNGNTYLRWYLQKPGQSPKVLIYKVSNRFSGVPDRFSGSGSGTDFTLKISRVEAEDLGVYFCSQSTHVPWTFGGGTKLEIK

- Variants of: B1
- EXPERIMENT NOTES: yeast surface expression (ratio to wild type); higher = more expressed
- CONDITION: format: scFv 4-4-20, heavy + light
REPORTED ENDPOINT: yeast surface expression
// return just the number, without any unit appended

Recorded results for 3 variants are shown here.
chain 1 S30N = 0.889
chain 1 T28D V37C = 0.886
chain 1 G100I Y103E = 0.879

For this variant ( chain 1 G100C ), measured yeast surface expression is 0.893
